B1: FAM189A2 (parent)
chain: VAAALRYLQIFATRRSCIDESQIS

Variants of: B1
Assay: protein stability index of a GFP-peptide fusion (GPS, HEK-293T) (PSI 1-6); higher = more stable;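 note: lentivirally expressed fusions sorted by FACS into six bins by GFP to DsRed ratio, PSI derived from sequencing read proportions per bin multiplied by bin number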
Conditions: c terminus: a fixed tail appended
# protein stability index per record follows
Lab note: write the figure by itself, no unit.

Recorded results for 3 variants are shown here.
[
  {
    "mut": "Y7R",
    "protein stability index": 1.85
  },
  {
    "mut": "R6T",
    "protein stability index": 2.41
  },
  {
    "mut": "A4N",
    "protein stability index": 2.83
  }
]

stdin: Any idea what its protein stability index is? The variant is R15E
stdout: 2.13

stdin: Return reported protein stability index; argument: A12S
stdout: 3.61

Sourced from the supplement of paper PMC10567573
